I'd be grateful if you could share measured EC50 for these entries.
Tested on: Lu1
Assay: Cytotoxicity against human Lu1 cells
Format: functional
Conditions: read-out: ED50 (the source's name)

Fill in: EC50 of C[C@H]1C(=O)CC[C@H]2[C@]3(C)CC[C@@]4(C)[C@@H]5CC(C)(C)CC[C@]5(CO)CC[C@]4(C)[C@H]3C[C@@H](O)[C@]12C is ___
> 20 µg/mL

Record request: EC50 value, item CC1=C(O)C(=O)C[C@@H]2[C@@]3(C)CC[C@](C)(C(=O)O)C[C@@H]3CC[C@]12C
> 20 µg/mL

So what does the record say about EC50 for C=C(C)[C@@H]1CC[C@]2(C(=O)O)CC[C@]3(C)[C@H](CC[C@@H]4[C@@]5(C)CC[C@H](O)C(C)(C)[C@@H]5CC[C@]43C)[C@@H]12 ?
> 20 µg/mL
